# tgt: Carboxy-terminal domain RNA polymerase II polypeptide A small phosphatase 1 (Homo sapiens)
# Sequence (Q9GZU7 whole entry): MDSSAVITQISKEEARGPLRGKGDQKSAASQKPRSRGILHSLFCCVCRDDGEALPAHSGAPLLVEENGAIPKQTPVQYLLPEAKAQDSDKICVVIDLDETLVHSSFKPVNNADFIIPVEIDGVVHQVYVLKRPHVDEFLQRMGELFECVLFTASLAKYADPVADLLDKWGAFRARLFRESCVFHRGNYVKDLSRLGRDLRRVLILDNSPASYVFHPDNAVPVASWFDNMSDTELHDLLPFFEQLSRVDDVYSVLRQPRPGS
pIC50: −log10 of the molar value.
// pIC50 lookup, one value per entry
quantity_name: pIC50

>>> experimental_result("C/C(Nc1ccc(F)cc1)=[N+](/C)CCNS(=O)(=O)c1ccc(Cl)cc1")
5.23
>>> experimental_result("CC(=O)C(C[N+]1(C)CCCCC1)N=O (centres undefined)")
5.47
>>> experimental_result("COc1ccccc1NC(=O)CN1C(=O)/C(=N\\NC(=O)c2ccccc2O)c2ccccc21")
5.56
>>> experimental_result("CC(=NNC(=O)c1cc(-c2cccc([N+](=O)[O-])c2)n[nH]1)C1C=CC=CC1=O (centres undefined)")
5.77
>>> experimental_result("Cc1ccc(-n2[nH]c(C)c(CN=Nc3ccc([N+](=O)[O-])cc3[N+](=O)[O-])c2=O)cc1")
5.22
>>> experimental_result("CON=C(C(=O)N[C@@H]1C(=O)N2C(C(=O)O)=C(COC(N)=O)CS[C@H]12)c1ccco1")
5.68
>>> experimental_result("O=C(O)CCC(N=Nc1ccc(S(=O)(=O)N2CCCC2)cc1[N+](=O)[O-])c1cccs1 (centres undefined)")
4.81
>>> experimental_result("CC1(CC(=O)NN=CC2C=C([N+](=O)[O-])C(=O)C=C2O)OCCO1 (centres undefined)")
5.36
>>> experimental_result("Cc1nnc(NS(=O)(=O)c2ccc(/N=N/c3ccc(N)nc3N)cc2)s1")
4.94
>>> experimental_result("Cc1ccc(OCC(=O)NN=C/C=C/c2ccco2)cc1")
5.22
>>> experimental_result("CCOc1ccc(CN=Nc2ccc(S(=O)(=O)Nc3ccccc3C(=O)O)cc2[N+](=O)[O-])cc1OC")
5.46
>>> experimental_result("O=NCc1cc(Br)ccc1OCC(=O)O")
5.10
>>> experimental_result("O=C(CSc1nc(O)cc(=O)[nH]1)Nc1ccccc1[N+](=O)[O-]")
5.39
>>> experimental_result("Cc1ccc(-n2[nH]c(C)c(CN=Nc3ccc([N+](=O)[O-])cc3[N+](=O)[O-])c2=O)cc1C")
5.48
>>> experimental_result("O=C1Nc2ccc([N+](=O)[O-])cc2/C1=N/NC(=O)c1ccccc1Cl")
5.19
>>> experimental_result("O=C(N/N=C/C1C=C(Cl)C=C([N+](=O)[O-])C1=O)c1cc(-c2ccccn2)nc2ccccc12 (centres undefined)")
5.73
>>> experimental_result("Cc1cc(=O)n(-c2ccc(Cl)c(C(=O)O)c2)[nH]1")
5.05
>>> experimental_result("Cc1ccccc1NC(=O)CN1C(=O)/C(=N\\NC(=O)c2ccccc2O)c2ccccc21")
5.91
>>> experimental_result("COc1ccc(/C=C/C(=O)Oc2cccc(C=NNC(=O)c3cccc(F)c3)c2)cc1")
4.89
>>> experimental_result("C/C(C=NNC(=O)c1ccc(Br)cc1)=C\\c1ccccc1")
5.32
>>> experimental_result("O=C(O)CNC(=O)Cc1sc(NNc2nc(O)cs2)nc1O")
5.28
>>> experimental_result("COc1cc(CN=Nc2nc(O)c(CC(=O)O)s2)ccc1OCc1ccc(Cl)cc1")
4.91
>>> experimental_result("CCOC(=O)C1C(COC(=O)C=Cc2ccco2)=NC(=O)NC1C (centres undefined)")
5.37
>>> experimental_result("O=C(NN=C/C(Cl)=C/c1ccccc1)c1ccc2c(c1)OCO2")
5.07
>>> experimental_result("Cc1cccc(NC(=O)CN2C(=O)/C(=N\\NC(=O)c3ccccc3O)c3ccccc32)c1")
5.70
>>> experimental_result("O=c1cc(O)[n+]2nc(-c3ccc([N+](=O)[O-])cc3)sc2[n-]1")
5.25
>>> experimental_result("Cc1ccc2c(c1)=C(NNC(=O)c1ccc(NS(=O)(=O)c3cccs3)cc1)C(=O)N=2")
4.94
>>> experimental_result("O=C(NN=C/C=C\\c1ccco1)c1ccccn1")
4.84
>>> experimental_result("C[N+](C)(C)CCNC(=O)C1=C/C(=C\\N=O)N(Cc2ccccc2)C=C1")
5.12
>>> experimental_result("Cc1ccc(OCC(=O)N/N=C/c2ccc(O)c([N+](=O)[O-])c2)c([N+](=O)[O-])c1")
5.07
>>> experimental_result("CCCCC1(C)OC(=O)C(=Cc2ccc(-c3ccc(Cl)c(C(=O)O)c3)o2)C(=O)O1 (centres undefined)")
4.82
>>> experimental_result("C=CCC1C=C(/C=C/c2nc(O)c([N+](=O)[O-])c(=O)[nH]2)C=C(OC)C1=O (centres undefined)")
4.72
